These data points were gathered from PubChem BioAssay (NCI).

Tested on: OVCAR-8 ovarian
Assay: NCI tumour cell line growth inhibition, 48 h

smilesRepresentation	units	comparativeSign	TGI
Cc1ccc(O)c(NC2=C(Cl)C(=O)N(Cc3ccccc3)C2=O)c1	µM	=	39.3
C1CC2=C(C1)C1=S(S2)SC2=C1CCC2	µM	>	100
C[C@H](NC(=O)c1c(C(F)F)nn(C)c1Oc1cccc(C(F)(F)F)c1)c1ccc(C(=O)O)cc1	µM	>	100
CN1CCN(CCCOc2cccc3nc(Nc4ccc(F)c(F)c4)ccc23)CC1	µM	=	10.2
O=P1(Cc2ccccc2)c2ccccc2-c2ccccc21	µM	=	36.7
CC(=O)c1c(O)n(-c2ccc(C)cc2)c(=O)c2c(N)n[nH]c12	µM	>	100

---

Test system: RPMI-8226 leukemia
Assay: NCI tumour cell line growth inhibition, 48 h
Recorded log10(TGI) by entry
reportedProperty: log10(TGI) (log10 of the value in µM)

compound	log10(TGI)
COc1cc(-c2cc3ncccc3c3[nH]c(=O)c4cccnc4c23)cc(OC)c1OC	1.68
[N-]=[N+]=Nc1ccc2c(c1)Sc1ccccc1N2CCCCN1CCN(C(=O)CCNC(=O)Cc2ccc(C(=O)c3ccccc3)cc2)CC1	0.69
COc1ccc(-c2n[nH]nc2-c2cc(OC)c3c(c2)OCO3)cc1	1.51
Cc1c(C)c2c(c(C)c1OCC(=O)O)CC[C@@](C)(CCC[C@@H](C)CCC[C@@H](C)CCCC(C)C)O2	2.33
CCOc1ccc(N=Cc2ccnc3ccccc23)cc1	1.55
CC(C)=C1CCC(CN2CCOCC2)C1=O (configuration not stated)	1.10
CC1=C(C(=O)Nc2ccccc2)C(c2cc(Cl)cc(Cl)c2)C(C(=O)Nc2ccccc2)=C(C)N1	1.40
Cc1nc(Sc2nc3ccc([N+](=O)[O-])cc3s2)sc1C	0.81
COc1ccc2c(c1)CCc1c(CO)c(COC(=O)NC(C)C)n(C)c1-2	0.85
CC(C)(C)c1nc(-c2cccc(NS(=O)(=O)c3c(F)cccc3F)c2F)c(-c2ccnc(N)n2)s1	1.99
CC(=O)O[C@H]1C(=O)[C@@]2(C)[C@H]([C@H](OC(=O)c3ccccc3)[C@]3(O)C[C@H](OC(=O)[C@H](O)[C@@H](NC(=O)c4ccc(N(C)C)cc4)c4ccccc4)C(C)=C1C3(C)C)[C@]1(OC(C)=O)CO[C@@H]1C[C@@H]2O	-2.10
CCc1nc2cc(/C=C/C(=O)NO)ccc2c(=O)n1CCc1ccc(OC)cc1	1.75
CCC(=O)Nc1ccc(NCC(=O)Nc2ccc(OC)cc2)cc1	1.96
CC[C@@H](O)C[C@H]1CCC[C@@]2(C[C@@H]3OC(=O)/C=C/[C@@](C)(O)[C@@H](O)[C@H](C)[C@@H](O)[C@H](OC4CCC(N(C)C)C(C)O4)[C@@H](O)[C@](C)(O)CCCCC/C=C/[C@@H]4CC(C)(C)O[C@@]4(O)C[C@H](O2)[C@H]3C)O1 (some centres not stated)	1.40

---

System: SNB-75 CNS
Assay: NCI tumour cell line growth inhibition, 48 h
reportedProperty: TGI

compound	reportedResult
C/C(CC(=O)Nc1ccc(NC(=O)C/C(C)=N\NC(N)=O)cc1)=N/NC(N)=O	> 100 µM
O=C(NCc1ccc2ccc3cccnc3c2n1)c1ccc[n+](Cc2ccccc2)c1	> 100 µM
C#CC(O)/C=C/C(O)CCCC(O)CC#CC(O)C#CCCCCC(O)/C=C/CCCC(O)/C=C/CCCCCCCCCCCCCC(O)C(O)C#CC(=O)O (stereo not given)	> 25 µM
CN1CCCN2CCN(C)CCCN(CC1)CC2	> 100 µM
CCN(CC)c1ccc(/C=N/NC(=O)CSc2nc3ccccc3c(=O)n2Cc2ccc(S(N)(=O)=O)cc2)c(O)c1	> 100 µM

---

Tested on: SR leukemia
Assay: NCI tumour cell line growth inhibition, 48 h

molecule	TGI
CC(C)=C[C@@H]1O[C@H](O)[C@@H]([C@H]2CC[C@@]3(C)[C@@H]4CC[C@H]5C(C)(C)C(=O)CC[C@@]56C[C@@]46CC[C@]23C)[C@@H]1O	25.8 µM
Cc1cccc(Nc2cc(Cl)nc(SCC(=O)O)n2)c1C	> 100 µM
Cc1ccc(/S(Cc2ccccc2)=N\S(=O)(=O)c2ccc(C)cc2)cc1 (stereo unspecified)	> 100 µM
C=CC[C@]1(C2=NC(C)(C)CO2)c2ccccc2-c2ccccc2[C@H]1C(C)=O	14 µM
c1ccc(C2CC(c3ccc4ccccc4c3)=Nc3ccccc3S2)cc1 (stereo unspecified)	> 100 µM
NC(N)=N/N=C/c1c(-c2cc([N+](=O)[O-])c(Cl)cc2Cl)nc2n1CCS2	3.43 µM
CCOC(=O)/C=C(/C(=O)OCC)n1ccc(=O)n(Cc2cnnn2CCCCOC(C)=O)c1=O	> 100 µM
N#Cc1c(-c2ccccc2)cc(Nc2ccc(Cl)cc2)n2c1nc1ccccc12	20.3 µM
OC(COc1ccccc1)CN1CCCCC1 (stereo unspecified)	> 100 µM
O=C(Nc1ccc2c(c1)OCCO2)C(=O)c1c[nH]c2ccccc12	> 46.7 µM
Cc1cc2nnc(C(N)=O)c(N)c2cc1C	> 100 µM
COc1cccc2nc3c(C(=O)NCCN(C)C)cccc3nc12	> 37.9 µM
CCc1nc2cc(/C=C/C(=O)NO)ccc2c(=O)n1CCc1ccc(OC)cc1	> 100 µM
CCN(CC)CCN1C(=O)C(=O)N(c2cccc3ccccc23)C1=O	> 10 µM
C=C(C)C(=O)OC1C[C@H](COC(C)=O)C2CC=C(CO)C2C2OC(=O)C(=C)[C@H]12 (stereo partly specified)	65.2 µM
C=CCCC(=O)C(=[N+]=[N-])C(=O)CCC(=O)c1ccccc1	> 10 µM
CN1CCCN2CCN(C)CCCN(CC1)CC2	> 100 µM
CC12CCC(CC1(Cl)Cl)C2 (stereo unspecified)	> 100 µM
COc1cc(-c2cc3ncccc3c3[nH]c(=O)c4cccnc4c23)cc(OC)c1OC	71.9 µM
COc1cccc(NC(=O)c2sc3nc4c(cc3c2N)C(O)CCC4)c1 (stereo unspecified)	> 100 µM
Nc1ccccc1C(=O)NC(=O)Nc1ccc(Oc2ncc(Br)cn2)c(Cl)c1	1.5 µM
O=c1[nH]nc(-c2ccc(F)cc2)cc1-c1ccccc1	> 100 µM
CCNC(=S)NNC(=O)CSc1nc2ccc(I)cc2c(=O)n1Cc1ccccc1	> 100 µM
O=C1NC(=Nc2ccccc2)C(=Nc2ccccc2)N1c1ccccc1	51.1 µM
CC[C@@H](O)C[C@H]1CCC[C@@]2(C[C@@H]3OC(=O)/C=C/[C@@](C)(O)[C@@H](O)[C@H](C)[C@@H](O)[C@H](OC4CCC(N(C)C)C(C)O4)[C@@H](O)[C@](C)(O)CCCCC/C=C/[C@@H]4CC(C)(C)O[C@@]4(O)C[C@H](O2)[C@H]3C)O1 (stereo partly specified)	9.42 µM
C[C@H]1O[C@@H](C(C)(C)C)OC(=O)[C@@H]1C(OC(=O)c1ccccc1)c1cccc2ccccc12 (stereo partly specified)	> 100 µM

---

System: SW-620 colon
Test: NCI tumour cell line growth inhibition, 48 h
Recorded TGI by entry
reportedProperty: TGI

molecule	reportedResult
CC(=O)O[C@H](C[C@H](C(C)C)N(C)C(=O)[C@@H](NC(=O)[C@H]1CCCCN1C)C(C)C)c1cccc(C(=O)N[C@@H](Cc2ccccc2)C[C@H](C)C(=O)O)n1	> 25 µM
Cc1ccc(SCC(OCn2cnc3c(Cl)nc(N)nc32)[C@H](C)F)cc1 (stereo partly drawn)	> 100 µM
CC(=O)NC1C(OCc2ccccc2)OC(CO)C(O)C1OCC(=O)N[C@@H](C)C(=O)N[C@H](CCC(=O)NCCNc1ccc([N+](=O)[O-])c2[nH]c3ccccc3c(=O)c12)C(N)=O (stereo partly drawn)	> 100 µM
CN(C)CCCCCNc1c2ccccc2nc2cccc([N+](=O)[O-])c12	0.0126 µM
COc1ccc2c3c1OC1C(OC)(OC)CC4(C=C2)CN(C)CCC314 (stereo not drawn)	> 100 µM
CCN(CC)c1ccc2nc3ccc(N=Nc4ccc(O)cc4)cc3[n+](-c3ccccc3)c2c1	6.38 µM
C=CC[C@]1(C2=NC(C)(C)CO2)c2ccccc2-c2ccccc2[C@H]1C(C)=O	34.4 µM
C/C(O[Si](C(C)C)(C(C)C)C(C)C)=C(\C)C(=O)N(C)c1ccccc1Cl	> 100 µM
N#C/C(=C\c1ccccc1)C(NO)Nc1ccccc1 (stereo not drawn)	> 100 µM
COc1cc(-c2nccc3cc4c(cc23)OCO4)cc(OC)c1OC	> 100 µM
COc1cc2nc(-c3cccc4cccnc34)nc(NC3CCN(Cc4ccccc4)CC3)c2cc1OC	2.01 µM
S=C(CSc1ccccc1)Nc1cccc2ccccc12	> 100 µM
CCn1c(=N)sc2nc3ccccc3n2c1=O	> 100 µM
CC12CCC(CC1(Cl)Cl)C2 (stereo not drawn)	> 100 µM
CCN(CC)c1ccc(N=Nc2ccc(-c3nc4cccn(C)c-4n3)cc2)cc1	22.9 µM
CNC(=S)/C(C#N)=C(\N)N1CCCC1	> 100 µM
CCOC1CCN(C(=O)c2ccccc2)O1 (stereo not drawn)	> 10 µM
COC(=O)N/N=C(\C)C(CN(C)C)C(c1ccccc1)c1c(O)c2ccccc2oc1=O (stereo not drawn)	> 100 µM
